target: human SRIF receptor type 5 (Homo sapiens, UniProt P35346)
Sequence (P35346 whole entry): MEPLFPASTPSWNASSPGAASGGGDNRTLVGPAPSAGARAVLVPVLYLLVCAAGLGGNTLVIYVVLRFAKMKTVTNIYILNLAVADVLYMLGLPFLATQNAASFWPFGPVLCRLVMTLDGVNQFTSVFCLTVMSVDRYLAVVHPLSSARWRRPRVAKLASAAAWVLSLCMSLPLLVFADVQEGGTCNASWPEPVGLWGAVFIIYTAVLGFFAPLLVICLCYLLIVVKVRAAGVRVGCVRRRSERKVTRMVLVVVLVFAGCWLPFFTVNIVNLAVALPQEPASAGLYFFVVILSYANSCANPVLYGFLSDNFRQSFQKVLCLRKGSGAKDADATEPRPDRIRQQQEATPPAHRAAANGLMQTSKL
Positions of bridges follow the written chain, without caps; N, C: chain ends. Non-standard residues stand in square brackets, D forms with d. Residues, ends and D or L forms follow the SMILES beside them.
quantity: Kd (µM)
Value expressed in µM; do not type the unit.

Q. # return recorded Kd for entry C[C@@H](O)[C@H](NC(=O)[C@@H]1CSSC[C@H](NC(=O)[C@H](CCCCN)NC(=O)[C@H](Cc2ccc(O)cc2)NC(=O)[C@@H](CCCCN)NC(=O)[C@@H](Cc2ccc(O)cc2)NC(=O)[C@H](CCCCN)NC(=O)[C@H](Cc2ccc(O)cc2)NC(=O)[C@H](N)CCCCN)C(=O)N[C@@H](Cc2ccccc2)C(=O)N[C@H](Cc2c[nH]c3ccccc23)C(=O)N[C@@H](CCCCN)C(=O)N[C@@H]([C@@H](C)O)C(=O)N1)C(N)=O [JF-05-85] (H-[dK]YK[dY][dK]YKCF[dW]KTCT-NH2; disulfide 8-13)
A. 0.0173

====

target: human SRIF receptor type 1 (Homo sapiens)
Sequence (P30872 whole entry): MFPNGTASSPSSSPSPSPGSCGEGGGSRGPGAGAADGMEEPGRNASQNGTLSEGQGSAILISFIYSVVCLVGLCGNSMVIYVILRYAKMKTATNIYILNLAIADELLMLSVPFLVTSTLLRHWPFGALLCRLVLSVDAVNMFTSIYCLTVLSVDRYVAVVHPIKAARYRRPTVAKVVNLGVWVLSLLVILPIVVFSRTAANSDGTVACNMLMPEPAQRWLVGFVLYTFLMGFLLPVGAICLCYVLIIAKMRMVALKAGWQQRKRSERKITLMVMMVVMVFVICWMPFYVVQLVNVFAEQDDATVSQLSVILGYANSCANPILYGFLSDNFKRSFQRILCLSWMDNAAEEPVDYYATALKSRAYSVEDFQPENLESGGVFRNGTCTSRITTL
Positions of bridges follow the written chain, without caps; N, C: chain ends. Non-standard residues stand in square brackets, D forms with d. Residues, ends and D or L forms follow the SMILES beside them. Phe(4-NH2) = Nc1ccc(C[C@H](N)C(=O)O)cc1; Dab = NCC[C@H](N)C(=O)O
quantity: Kd (nM)
Value expressed in nM; do not type the unit.

Observe how each entry below is paired with its result.
molecule	Kd [nM]
C[C@@H](O)[C@H](NC(=O)[C@@H]1CSSC[C@H](NC(=O)[C@H](CCCCN)NC(=O)[C@H](Cc2ccc(O)cc2)NC(=O)[C@@H](CCCCN)NC(=O)[C@@H](Cc2ccc(O)cc2)NC(=O)[C@H](CCCCN)NC(=O)[C@H](Cc2ccc(O)cc2)NC(=O)[C@H](N)CCCCN)C(=O)N[C@@H](Cc2ccccc2)C(=O)N[C@H](Cc2c[nH]c3ccccc23)C(=O)N[C@@H](CCCCN)C(=O)N[C@@H]([C@@H](C)O)C(=O)N1)C(N)=O [JF-05-85] (H-[dK]YK[dY][dK]YKCF[dW]KTCT-NH2; disulfide 8-13)	16.9
C[C@@H](O)[C@H](NC(=O)[C@@H]1CSSC[C@H](NC(=O)[C@@H](CCCCN)NC(=O)[C@@H](Cc2ccc(O)cc2)NC(=O)[C@@H](CCCCN)NC(=O)[C@@H](Cc2ccc(O)cc2)NC(=O)[C@H](N)CCCCN)C(=O)N[C@@H](Cc2ccccc2)C(=O)N[C@H](Cc2c[nH]c3ccccc23)C(=O)N[C@@H](CCCCN)C(=O)N[C@@H]([C@@H](C)O)C(=O)N1)C(N)=O [JF-06-44] (H-[dK][dY][dK][dY][dK]CF[dW]KTCT-NH2; disulfide 6-11)	3.8
C[C@@H](O)[C@H](NC(=O)[C@@H]1CSSC[C@H](NC(=O)[C@H](CCCCN)NC(=O)[C@H](Cc2ccc(O)cc2)NC(=O)[C@H](CCCCN)NC(=O)[C@H](Cc2ccc(O)cc2)NC(=O)[C@H](N)CCCCN)C(=O)N[C@@H](Cc2ccccc2)C(=O)N[C@H](Cc2c[nH]c3ccccc23)C(=O)N[C@@H](CCCCN)C(=O)N[C@@H]([C@@H](C)O)C(=O)N1)C(N)=O [JF-05-59] (H-[dK]YKYKCF[dW]KTCT-NH2; disulfide 6-11)	4.1

Q. # return recorded Kd for entry C[C@@H](O)[C@H](NC(=O)[C@@H]1CSSC[C@H](NC(=O)[C@H](CCCCN)NC(=O)[C@H](Cc2ccc(N)cc2)NC(=O)[C@H](CCCCN)NC(=O)[C@H](Cc2ccc(N)cc2)NC(=O)[C@H](N)CCCCN)C(=O)N[C@@H](Cc2ccccc2)C(=O)N[C@H](Cc2c[nH]c3ccccc23)C(=O)N[C@@H](CCCCN)C(=O)N[C@@H]([C@@H](C)O)C(=O)N1)C(N)=O [JF-06-31] (H-[dK][Phe(4-NH2)]K[Phe(4-NH2)]KCF[dW]KTCT-NH2; disulfide 6-11)
A. 1.5

Q. # return recorded Kd for entry C[C@@H](O)[C@H](NC(=O)[C@@H]1CSSC[C@H](NC(=O)[C@H](CCN)NC(=O)[C@H](Cc2ccc(O)cc2)NC(=O)[C@H](CCN)NC(=O)[C@H](Cc2ccc(O)cc2)NC(=O)[C@@H](N)CCN)C(=O)N[C@@H](Cc2ccccc2)C(=O)N[C@H](Cc2c[nH]c3ccccc23)C(=O)N[C@@H](CCCCN)C(=O)N[C@@H]([C@@H](C)O)C(=O)N1)C(N)=O [JF-06-45] (H-[Dab]Y[Dab]Y[Dab]CF[dW]KTCT-NH2; disulfide 6-11)
A. 6.2

Q. # return recorded Kd for entry C[C@@H](O)[C@H](NC(=O)[C@@H]1CSSC[C@H](NC(=O)[C@@H](CCCCN)NC(=O)[C@@H](Cc2ccc(O)cc2)NC(=O)[C@H](N)CCCCN)C(=O)N[C@@H](Cc2ccccc2)C(=O)N[C@H](Cc2c[nH]c3ccccc23)C(=O)N[C@@H](CCCCN)C(=O)N[C@@H]([C@@H](C)O)C(=O)N1)C(N)=O [JF-06-50] (H-[dK][dY][dK]CF[dW]KTCT-NH2; disulfide 4-9)
A. 20.9

Q. # return recorded Kd for entry C[C@@H](O)[C@H](NC(=O)[C@@H]1CSSC[C@H](NC(=O)[C@H](CCCNC(=N)N)NC(=O)[C@H](Cc2ccc(O)cc2)NC(=O)[C@H](CCCNC(=N)N)NC(=O)[C@H](Cc2ccc(O)cc2)NC(=O)[C@H](N)CCCNC(=N)N)C(=O)N[C@@H](Cc2ccccc2)C(=O)N[C@H](Cc2c[nH]c3ccccc23)C(=O)N[C@@H](CCCCN)C(=O)N[C@@H]([C@@H](C)O)C(=O)N1)C(N)=O [JF-05-81] (H-[dR]YRYRCF[dW]KTCT-NH2; disulfide 6-11)
A. 12.1

====

target: human SRIF receptor type 5 (Homo sapiens)
Positions of bridges follow the written chain, without caps; N, C: chain ends. Non-standard residues stand in square brackets, D forms with d. Residues, ends and D or L forms follow the SMILES beside them. Phe(4-NH2) = Nc1ccc(C[C@H](N)C(=O)O)cc1
Reported values of Kd for individual entries
Value expressed in nM; do not type the unit.

compound	system name	quantity	unit string	result number
C[C@@H](O)[C@H](NC(=O)[C@@H]1CSSC[C@H](NC(=O)[C@H](CCCCN)NC(=O)[C@H](Cc2ccc(N)cc2)NC(=O)[C@H](CCCCN)NC(=O)[C@H](Cc2ccc(N)cc2)NC(=O)[C@H](N)CCCCN)C(=O)N[C@@H](Cc2ccccc2)C(=O)N[C@H](Cc2c[nH]c3ccccc23)C(=O)N[C@@H](CCCCN)C(=O)N[C@@H]([C@@H](C)O)C(=O)N1)C(N)=O [JF-06-31] (H-[dK][Phe(4-NH2)]K[Phe(4-NH2)]KCF[dW]KTCT-NH2; disulfide 6-11)	human SRIF receptor type 5 (Homo sapiens)	Kd	nM	3

Q. # return recorded Kd for entry C[C@@H](O)[C@H](NC(=O)[C@@H]1CSSC[C@H](NC(=O)[C@H](CCCNC(=N)N)NC(=O)[C@H](Cc2ccc(O)cc2)NC(=O)[C@H](CCCNC(=N)N)NC(=O)[C@H](Cc2ccc(O)cc2)NC(=O)[C@H](N)CCCNC(=N)N)C(=O)N[C@@H](Cc2ccccc2)C(=O)N[C@H](Cc2c[nH]c3ccccc23)C(=O)N[C@@H](CCCCN)C(=O)N[C@@H]([C@@H](C)O)C(=O)N1)C(N)=O [JF-05-81] (H-[dR]YRYRCF[dW]KTCT-NH2; disulfide 6-11)
A. 3.3

====

Positions of bridges follow the written chain, without caps; N, C: chain ends. Non-standard residues stand in square brackets, D forms with d. Residues, ends and D or L forms follow the SMILES beside them. Phe(4-NH2) = Nc1ccc(C[C@H](N)C(=O)O)cc1; Dab = NCC[C@H](N)C(=O)O
Listed here: molecules with reported Kd for human SRIF receptor type 4 (Homo sapiens).

molecule	Kd
C[C@@H](O)[C@H](NC(=O)[C@@H]1CSSC[C@H](NC(=O)[C@H](CCN)NC(=O)[C@H](Cc2ccc(O)cc2)NC(=O)[C@H](CCN)NC(=O)[C@H](Cc2ccc(O)cc2)NC(=O)[C@@H](N)CCN)C(=O)N[C@@H](Cc2ccccc2)C(=O)N[C@H](Cc2c[nH]c3ccccc23)C(=O)N[C@@H](CCCCN)C(=O)N[C@@H]([C@@H](C)O)C(=O)N1)C(N)=O [JF-06-45] (H-[Dab]Y[Dab]Y[Dab]CF[dW]KTCT-NH2; disulfide 6-11)	> 1 µM
C[C@@H](O)[C@H](NC(=O)[C@@H]1CSSC[C@H](NC(=O)[C@H](CCCCN)NC(=O)[C@H](Cc2ccc(O)cc2)NC(=O)[C@H](CCCCN)NC(=O)[C@H](Cc2ccc(O)cc2)NC(=O)[C@H](N)CCCCN)C(=O)N[C@@H](Cc2ccccc2)C(=O)N[C@H](Cc2c[nH]c3ccccc23)C(=O)N[C@@H](CCCCN)C(=O)N[C@@H]([C@@H](C)O)C(=O)N1)C(N)=O [JF-05-59] (H-[dK]YKYKCF[dW]KTCT-NH2; disulfide 6-11)	0.515 µM
C[C@@H](O)[C@H](NC(=O)[C@@H]1CSSC[C@H](NC(=O)[C@H](CCCNC(=N)N)NC(=O)[C@H](Cc2ccc(O)cc2)NC(=O)[C@H](CCCNC(=N)N)NC(=O)[C@H](Cc2ccc(O)cc2)NC(=O)[C@H](N)CCCNC(=N)N)C(=O)N[C@@H](Cc2ccccc2)C(=O)N[C@H](Cc2c[nH]c3ccccc23)C(=O)N[C@@H](CCCCN)C(=O)N[C@@H]([C@@H](C)O)C(=O)N1)C(N)=O [JF-05-81] (H-[dR]YRYRCF[dW]KTCT-NH2; disulfide 6-11)	> 1 µM
C[C@@H](O)[C@H](NC(=O)[C@@H]1CSSC[C@H](NC(=O)[C@H](CCCCN)NC(=O)[C@H](Cc2ccc(N)cc2)NC(=O)[C@H](CCCCN)NC(=O)[C@H](Cc2ccc(N)cc2)NC(=O)[C@H](N)CCCCN)C(=O)N[C@@H](Cc2ccccc2)C(=O)N[C@H](Cc2c[nH]c3ccccc23)C(=O)N[C@@H](CCCCN)C(=O)N[C@@H]([C@@H](C)O)C(=O)N1)C(N)=O [JF-06-31] (H-[dK][Phe(4-NH2)]K[Phe(4-NH2)]KCF[dW]KTCT-NH2; disulfide 6-11)	> 1 µM
C[C@@H](O)[C@H](NC(=O)[C@@H]1CSSC[C@H](NC(=O)[C@@H](CCCCN)NC(=O)[C@@H](Cc2ccc(O)cc2)NC(=O)[C@H](N)CCCCN)C(=O)N[C@@H](Cc2ccccc2)C(=O)N[C@H](Cc2c[nH]c3ccccc23)C(=O)N[C@@H](CCCCN)C(=O)N[C@@H]([C@@H](C)O)C(=O)N1)C(N)=O [JF-06-50] (H-[dK][dY][dK]CF[dW]KTCT-NH2; disulfide 4-9)	> 1 µM

Consider the additional molecule presented here.
Q. # return recorded Kd for entry C[C@@H](O)[C@H](NC(=O)[C@@H]1CSSC[C@H](NC(=O)[C@H](CCCCN)NC(=O)[C@H](Cc2ccc(O)cc2)NC(=O)[C@@H](CCCCN)NC(=O)[C@@H](Cc2ccc(O)cc2)NC(=O)[C@H](CCCCN)NC(=O)[C@H](Cc2ccc(O)cc2)NC(=O)[C@H](N)CCCCN)C(=O)N[C@@H](Cc2ccccc2)C(=O)N[C@H](Cc2c[nH]c3ccccc23)C(=O)N[C@@H](CCCCN)C(=O)N[C@@H]([C@@H](C)O)C(=O)N1)C(N)=O [JF-05-85] (H-[dK]YK[dY][dK]YKCF[dW]KTCT-NH2; disulfide 8-13)
A. 0.369 µM
